The values you see were collected from PubChem BioAssay (NCI).

growth inhibition values by entry
assay: NCI Yeast Anticancer Drug Screen. Data for the cln2 rad14 strain (AID 165);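 further: 0% = growth equal to vehicle treated cultures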; settings: S. cerevisiae cln2 rad14 strain, at 50.0 µM, active compounds read high
The panel holds about 79,000 compounds, 15% with a hit somewhere; the sample as a whole holds those more often.
Number only, in %; omit the unit.

Check out these entries, answers already filled in.
COc1cc(C(C)O)c[n+](CCc2c[nH]c3ccccc23)c1 (stereo unspecified)
-8.1
CCC1(CC)C(=O)N=C(c2ccccc2)N1C
-16
CCOC(=O)C(=O)Nc1nc2ccc(OC)cc2s1
6.75

Tell me its growth inhibition given `CC(=O)Nc1ccc(N=C2c3ccccc3-c3ccc([N+](=O)[O-])cc32)cc1` as the entry.
-11.7

Answer with reported growth inhibition of CCCC1OCC(O)C(C(O)C(=O)CN(Cc2ccccc2)Cc2ccccc2)O1 (stereo unspecified)
-9.5

For the molecule `C=C(Br)CNCC(=C)Br` , give its reported growth inhibition.
9.65

Supply growth inhibition value. Item: `Cc1ccc2c(c1)C(=O)C1(C2)Cc2ccc(C)cc2C1=O`
-3.45

Identify measured growth inhibition corresponding to `CCOC(=O)C(=O)Nc1ccccc1C(C)C`
-7.15

Report measured growth inhibition; entry is CC1CN(C(=O)/C=C/C(=O)OC2CCCCC2)C(C)CN1C(=O)/C=C/C(=O)OC1CCCCC1 (stereo unspecified)
1.7

Indicate the recorded growth inhibition value for this molecule: O=C1OC(=O)C2C1C1(Cl)CC2(Cl)C(Cl)=C1Cl (stereo unspecified)
-30.8

Tell us which growth inhibition value is on record for `NC(=O)NC(=O)OCC(F)(F)C(F)(F)C(F)(F)C(F)(F)C(F)(F)C(F)(F)C(F)(F)F`
15.6

----------
assay: NCI Yeast Anticancer Drug Screen. Data for the bub3 strain (AID 167); details: S. cerevisiae bub3 mutant strain, at 50.0 µM, active compounds read high
The panel holds about 79,000 compounds, 15% with a hit somewhere; the sample as a whole holds those more often. Calls of active or inactive are those of the source. Cut-off read from the data, not from the text of the source: active = growth inhibition above about 70%; inactive = the rest. *1 amine or outer side, *2 acyl side, *3 side chain or, on linkers, in order; H or OH if unused. Where a SMILES comes first, the peptide text is derived from it. Bridges are numbered along the chain shown (N, C = ends). Roman numbers before positions name the chains, in order. [ ]: non-standard residue; d: D form. Actinocin(1to9) = Cc1c2oc3c(C)ccc(C(=O)[*:2])c3nc-2c(C(=O)[*:1])c(N)c1=O; NMeY = CN[CH](Cc1ccc(O)cc1)C(=O)O; Sar = CNCC(=O)O
reported-metric: growth inhibition

For orientation, consider the following solved cases.
COc1ccccc1NC(=O)C(=O)C(c1cnc2ccc([N+](=O)[O-])cc2n1)[N+](=O)[O-] (stereo not drawn)
7.6% (inactive)
O=S(=O)(c1ccccc1)c1ccc(CBr)cc1
-2.55% (inactive)
C[C@]12CC[C@@H]3c4ccc(O)cc4CC[C@H]3[C@@H]1CC[C@@H]2OP(=O)(O)O
-6.45% (inactive)
COc1ccc(CC2C(=O)OC(C)C(NC(=O)c3c4nc5c(C(=O)NC6C(=O)NC(C(C)C)C(=O)N7CCCC7C(=O)N(C)CC(=O)N(C)C(Cc7ccc(OC)cc7)C(=O)OC6C)ccc(C)c5oc-4c(C)c(=O)c3N)C(=O)NC(C(C)C)C(=O)N3CCCC3C(=O)N(C)CC(=O)N2C)cc1 (stereo not drawn) (I: TVP[Sar][NMeY](Me) / II: TVP[Sar][NMeY](Me); ester I:1-I:C, II:1-II:C; linker I:N-II:N via Actinocin(1to9); configuration not given here)
-25.8% (inactive)
CNC(=O)OCc1c(COC(=O)NC)c2n(c1C)CS(=O)(=O)C2
12.1% (inactive)

Find the measured growth inhibition of `CSc1nnc(CCC(=O)Nc2ccc(Cl)cc2Cl)o1` and report it.
14.4% (inactive)

Consider the compound `COC(=O)[C@@]1(C)/C(=N/NS(=O)(=O)c2ccc(C)cc2)CCC[C@@H]1C` and give its recorded growth inhibition.
-1.4% (inactive)

Report measured growth inhibition; entry is `CN(C)c1ccc(/C=N/NC(=O)c2cnc3ccccc3c2)cc1`
8.1% (inactive)

----------
experiment: NCI Yeast Anticancer Drug Screen. Data for the cln2 rad14 strain (AID 165);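 further: 0% = growth equal to vehicle treated cultures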; settings: S. cerevisiae cln2 rad14 strain, at 50.0 µM, active compounds read high
About 79,000 compounds went through this panel and 15% of them were active in at least one assay; those are over-represented in the sample as a whole.
growth inhibition values, listed per item
# output: bare number, implied unit %

In the examples that follow, each entry is paired with its recorded growth inhibition.
CCCCCCCCC1C(CCCCCCCC(=O)OC)C2(Cl)C(Cl)=C(Cl)C1(Cl)C2(Cl)Cl (configuration not stated)
3.05
CCSCC1(c2ccc(OC)cc2)NC(=O)NC1=O (configuration not stated)
-10.1
CC1=C(/C=C/C(C)=C/C=C/C(C)=C/C=C/C=C(C)/C=C/C=C(\C)C=O)C(C)(C)CCC1
-1.4
Cc1ccc(C(=O)CC(C#N)c2ccccc2)cc1 (configuration not stated)
18.1
Cn1c(=O)c2nsnc2n(C)c1=O
-25.3

Write down growth inhibition measured for item `COc1ccccc1N=NC1=C2Nc3ccccc3N=C1N(c1ccccc1OC)C(=S)N2c1ccccc1C`
-11.5

In one line, give reported growth inhibition of the entry CN1C(=O)NC(=O)C1(C)C=O (configuration not stated) .
5.95

Name the recorded growth inhibition of the compound listed here: `Nc1ccc(S(=O)(=O)NNc2nc(N3CCCCC3)nc(N3CCCCC3)n2)cc1`
7.9

Look up growth inhibition of `O=c1cc(-c2ccccc2)c2ccccc2[nH]1` and report it.
15.9

Fill in reported growth inhibition for this entry: `COc1cc2cccnc2c2[nH]c(=O)c3c(c12)CCC3`
-16.4

Given the compound `N#Cc1c(C#N)c(-c2ccccc2)n(-c2ccccc2)c1N` , write its reported growth inhibition.
-12.8

Give me measured growth inhibition, please, for this compound: `O=c1[nH][nH]c(=O)c2c1ncn2Cc1ccccc1`
-49.5

----------
experiment: NCI Yeast Anticancer Drug Screen. Data for the sgs1 mgt1 strain (AID 161);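 further: 0% = growth of cultures given vehicle only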; conditions: S. cerevisiae sgs1 mgt1 strain, at 50.0 µM, active compounds read high
Compounds without any hit were thinned out: in the full panel of roughly 79,000, 15% have a hit.
Property: growth inhibition; scope: individual molecules
Record the value in %, omitting the unit from your answer.

In one line, give reported growth inhibition of the entry `CCCCn1cnc2ccc3[nH]c(C)nc3c2c1=O` .
34.1

Give the reported growth inhibition for this molecule. `CCOC(=O)c1cnc2cc3c(cc2c1Nc1cccc(C)c1C)OCO3`
-16.4

Report measured growth inhibition; entry is `CC1(C)C(=O)c2cc3ccc4ccccc4c3cc2C(C)(C)C1(C)C`
1.2

Identify the reported growth inhibition for the following entry. `Nc1nc2c(C(=O)c3cccs3)nnn2c2cccc(Cl)c12`
-21.9

Supply growth inhibition value. Item: `O=C(NCCNCCO)N/N=C/c1ccc([N+](=O)[O-])cc1`
-1.4

Specify measured growth inhibition for CCNC(=O)CCC(NS(=O)(=O)c1ccc(NC(=O)c2ccc(Cl)cc2)cc1)C(=O)O (configuration not stated) .
-26

For `CCOC(=O)Nc1cc2c(c(N)n1)N=C(c1ccc(OC)cc1)CN2` , write its growth inhibition.
24.5

Supply recorded growth inhibition for `c1ccc(N=C(c2ccccc2)c2ccccc2)cc1` here.
-6.05

Given the molecule `NC(=S)c1ccccc1N=Cc1cccs1` , write its reported growth inhibition.
14.2

Using known records, supply growth inhibition for CNC1C(CO)OC(OC)C1O (configuration not stated)
7.1

Fill in growth inhibition for record N#CCCSC(=S)C(C#N)C(=N)c1ccccc1 (configuration not stated)
14.2

Specify reported growth inhibition for the molecule shown: `C=CCCCN(c1ccc(C(=O)OCC)cc1)S(=O)(=O)c1ccc(C)cc1`
12.1

----------
experiment: NCI Yeast Anticancer Drug Screen. Data for the sgs1 mgt1 strain (AID 161);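 further: 0% = growth of cultures given vehicle only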; details: S. cerevisiae sgs1 mgt1 strain, at 50.0 µM, active compounds read high
About 79,000 compounds went through this panel and 15% of them were active in at least one assay; those are over-represented in the sample as a whole.
Listing of recorded growth inhibition by entry.
Give a bare numeral; the unit % is implied.

Report growth inhibition for NC(=O)CC(NC(=O)C(F)(F)F)C(=O)O (stereo not given)
-13.4

Find the measured growth inhibition of `O/N=C/C(=Nc1cccc2ccccc12)NO` and report it.
-12.1

Give the reported growth inhibition for this molecule. `Clc1ccc(N=Cc2ccc(C=Nc3ccc(Cl)cc3)cc2)cc1`
24.1

Tell me its growth inhibition given `CC(C)CCOC(=O)NC(Nc1ccc(F)cc1)(C(F)(F)F)C(F)(F)F` as the entry.
-40.5

Please report growth inhibition for the following molecule: `CCCCCNC(=O)Nc1cccc(Cl)c1C`
3.55

Give the measured growth inhibition for `O=C(O)c1ccc(-c2ccc(C(=O)O)cc2I)c(I)c1`
6.25

Answer with reported growth inhibition of `O=S(=O)(CCc1ccccc1)c1nc2ccccc2s1`
-2.8

Please report growth inhibition for the following molecule: `Nc1ncnc(N)c1NC(=O)c1cccc(F)c1`
-3.7

Identify measured growth inhibition associated with `O=CNCC1(c2ccccc2)CCNCC1`
8.05

Fill in reported growth inhibition for this entry: CC1CC(OC(=O)c2ccccc2)CCC1=O (stereo not given)
-7.65

Output growth inhibition of `Nc1ccc(S(=O)(=O)NNc2nc(N3CCCCC3)nc(N3CCCCC3)n2)cc1`
10.2

Look up growth inhibition of `CCOC(=O)c1[nH]c(Cc2[nH]c(Cc3[nH]c(C(=O)OCC)c(C)c3C(=O)OCC)c(C(=O)OCC)c2C)c(C(=O)OCC)c1C` and report it.
45.2

Provide growth inhibition value for the following molecule: Nc1ncnc2c1ncn2C1CC(O)C(COP(=O)(O)O)O1 (stereo not given)
0.85

Give the reported value of growth inhibition for this record: `CCNC(=O)c1csnn1`
-5.95

Hello, please tell me recorded growth inhibition for this one: `COc1ccc(-c2cc(-c3ccc(Cl)cc3)on2)cc1`
-4.55

Entry `Cn1c2c(c3ccccc31)=NN1CCN=C1N=2` needs its growth inhibition filled in; supply it.
-0.15
